Recorded values, source patent US20110129504A1.

Experimental system: Rhizomucor miehei lipase (Rhizomucor miehei)
Sequence (P19515 95-363): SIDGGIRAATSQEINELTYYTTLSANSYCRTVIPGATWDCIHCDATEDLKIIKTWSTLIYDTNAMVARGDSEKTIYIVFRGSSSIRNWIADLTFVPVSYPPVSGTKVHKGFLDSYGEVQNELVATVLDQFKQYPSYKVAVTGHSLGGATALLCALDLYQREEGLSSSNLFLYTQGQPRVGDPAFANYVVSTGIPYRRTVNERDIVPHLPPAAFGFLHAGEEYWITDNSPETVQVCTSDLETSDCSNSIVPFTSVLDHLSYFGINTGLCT
Assay name: Biphasic decane/buffer system: lipolytic hydrolysis of p-nitrophenylpalmitate
Format: biochemical
Particulars: monoglyceride 1.3 E-3 M in decane, p-nitrophenylpalmitate 2E-4M, phosphate buffer pH 5.5, 3,3 E-6 M lipase; 410 nm; vs reference without surfactant
Method: A biphasic system was prepared in glass test tubes with the following composition: • Upper oil phase is composed of 7 ml decane in the absence (control) or presence of (1,3 E-3M) monoglyceride and 20 ul tricaprylin or p-nitrophenypalmitate (2E-4M) • Aqueous phase is composed of 2 ml phosphate buffer, pH 5.5 containing 3,3 E-6 M Rhizomucor miehei lipase. The caprylic acid generation in the presence and absence of monoglycerides (surfactant) is monitored by GC-FID. […]
Test readout: kinetics of nitrophenol formation from p-nitrophenylpalmitate

# Sample smiles, Assay value
data = [
    ("CCCCCCCCCCCC(=O)OC(CO)CO", "significant reduction"),
    ("CCCCCCCCCCCCCCCC(=O)OC(CO)CO", "significant reduction"),
    ("CCCCCCCC(=O)OC(CO)CO", "significant reduction"),
]
